Hello, the source for this data is patent US8993542B2, in case you need it.

system: PBMCs; test: Cytotoxicity (TC50) in PBMCs; format: cell-based; settings: isolate UG/92/024, subtype D; read-out: TC 50 (the source's name)
Assay Readout: CC50

Incoming: Quick check: CC50 on PBMCs, item CCCCCCCCCCCCCCCCOCCCOP(=O)(O)CO[C@H](C)Cn1cnc2c(N)ncnc21 ?
Outgoing: > 1000 nM

* * *

system: HIV; assay: microbe, parasite or virus in culture; type: cell-based; details: Human immunodeficiency virus 1, PANEL 37, M41L + T215Y + M184V
Each item that follows carries a reported IC50.
Just the number in µM, nothing appended.

As a guide, the following entries are already answered.
Compound	IC50 [µM]
CCCCCCCCCCCCCCCCOCCCOP(=O)(O)CO[C@H](C)Cn1cnc2c(N)ncnc21	0.00288
Cc1cn([C@H]2C[C@H](N=[N+]=[N-])[C@@H](CO)O2)c(=O)[nH]c1=O	0.177
OC[C@@H]1CC[C@H](n2cnc3c(O)ncnc32)O1	10.1
Nc1nc(NC2CC2)c2ncn([C@H]3C=C[C@@H](CO)C3)c2n1	9.6

Next item in the queue.
Incoming: Quick check: IC50 on HIV, item Cc1cn([C@H]2C=C[C@@H](CO)O2)c(=O)[nH]c1=O [d4T, 2′,3′-didehydro-3′-deoxythymidine] ?
Outgoing: 0.86

* * *

tested on: HIV; test: microbe, parasite or virus in culture; type: cell-based; settings: Human immunodeficiency virus 1, PANEL 48, K70E + M184V
Assay Readout: IC50

Molecule	IC50
Nc1nc(=O)n(C2CSC(CO)O2)cc1F (stereo not shown)	> 100 µM
CCCCCCCCCCCCCCCCOCCCOP(=O)(O)CO[C@H](C)Cn1cnc2c(N)ncnc21	0.00132 µM
Nc1nc(NC2CC2)c2ncn([C@H]3C=C[C@@H](CO)C3)c2n1	10.4 µM

Next item in the queue.
Incoming: Consider the molecule Cc1cn([C@H]2C[C@H](N=[N+]=[N-])[C@@H](CO)O2)c(=O)[nH]c1=O and give its measured IC50.
Outgoing: 0.004 µM

* * *

system: HIV-1 Subtype Isolates; experiment: Activity against HIV-1 subtype isolates in PBMCs, RT endpoint; conditions: Human immunodeficiency virus 1, PBMC, read-out: RT Endpoint IC50, isolate ADA, subtype B
Assay Readout: IC50 (nM)
Just the number in nM, nothing appended.

Incoming: Quick check: IC50 on HIV-1 Subtype Isolates, item CCCCCCCCCCCCCCCCOCCCOP(=O)(O)CO[C@H](C)Cn1cnc2c(N)ncnc21 ?
Outgoing: 1.08

* * *

tested on: PBMCs; assay: Cytotoxicity (TC50) in PBMCs; type: cell-based; details: isolate UG/92/001, subtype D; read-out: TC 50 (the source's name)
Assay Readout: CC50

Incoming: Consider the compound CCCCCCCCCCCCCCCCOCCCOP(=O)(O)CO[C@H](C)Cn1cnc2c(N)ncnc21 [CMX157] and give its measured CC50.
Outgoing: > 1000 nM

* * *

test system: HIV; experiment: microbe, parasite or virus in culture; type: cell-based; conditions: PANEL 28, 151M + 184; read-out: IC50
Assay Readout: IC50 (nM)
Just the number in nM, nothing appended.

Incoming: Consider the compound C[C@H](Cn1cnc2c(N)ncnc21)OCP(=O)(O)O [TFV, (R)-9-(2-phosphonylmethoxypropyl)adenine] and give its measured IC50.
Outgoing: 1100
